molecular target: mIIaTAT (Homo sapiens, UniProt P00734, E366T/I364T/V365A); assay: DAPA binding to zymogen-like mIIaTAT (interpretation of rescue data); conditions: possible interpretation of rescue findings
Reported metric: pKd
Convention used: pKd is expressed as -log10 of the molar concentration.

**Query** Please list pKd recorded for the molecule CCC1CCN(C(=O)C(CCCNC(=N)N)NS(=O)(=O)c2cccc3c(N(C)C)cccc23)CC1 (stereo not shown)
**Result** 4.52
